# Protocol conditions: in cyclohexanone, 288.15 K
Measurement type: solubility (mole fraction)
# answer = number (no unit)

Given `CNC(=O)c1cc(Oc2ccc(NC(=O)Nc3ccc(Cl)c(C(F)(F)F)c3)cc2)ccn1` , state its recorded solubility (mole fraction). 0.0153

----------
# Protocol conditions: in isobutanol, 298.15 K
Measurement type: solubility (mole fraction)
# answer = number (no unit)

Given `CNC(=O)c1cc(Oc2ccc(NC(=O)Nc3ccc(Cl)c(C(F)(F)F)c3)cc2)ccn1` , state its recorded solubility (mole fraction). 0.000854

----------
# Protocol conditions: in ethanol, 283.15 K
Measurement type: solubility (mole fraction)

Given `CNC(=O)c1cc(Oc2ccc(NC(=O)Nc3ccc(Cl)c(C(F)(F)F)c3)cc2)ccn1` , state its recorded solubility (mole fraction). 0.000817

----------
# Protocol conditions: in toluene, 293.15 K
Measurement type: solubility (mole fraction)
# answer = number (no unit)

Given `CNC(=O)c1cc(Oc2ccc(NC(=O)Nc3ccc(Cl)c(C(F)(F)F)c3)cc2)ccn1` , state its recorded solubility (mole fraction). 0.00282

----------
# Protocol conditions: in methanol, 303.15 K
Measurement type: solubility (mole fraction)

Given `CNC(=O)c1cc(Oc2ccc(NC(=O)Nc3ccc(Cl)c(C(F)(F)F)c3)cc2)ccn1` , state its recorded solubility (mole fraction). 0.000701

----------
# Protocol conditions: in isopropanol, 303.15 K
Measurement type: solubility (mole fraction)
# answer = number (no unit)

Given `CNC(=O)c1cc(Oc2ccc(NC(=O)Nc3ccc(Cl)c(C(F)(F)F)c3)cc2)ccn1` , state its recorded solubility (mole fraction). 0.0011

----------
# Protocol conditions: in acetonitrile, 293.15 K
Measurement type: solubility (mole fraction)
# answer = number (no unit)

Given `CNC(=O)c1cc(Oc2ccc(NC(=O)Nc3ccc(Cl)c(C(F)(F)F)c3)cc2)ccn1` , state its recorded solubility (mole fraction). 0.000334

----------
# Protocol conditions: in cyclohexanone, 313.15 K
Measurement type: solubility (mole fraction)

Given `CNC(=O)c1cc(Oc2ccc(NC(=O)Nc3ccc(Cl)c(C(F)(F)F)c3)cc2)ccn1` , state its recorded solubility (mole fraction). 0.0251

----------
# Protocol conditions: in n-butanol, 293.15 K
Measurement type: solubility (mole fraction)
# answer = number (no unit)

Given `CNC(=O)c1cc(Oc2ccc(NC(=O)Nc3ccc(Cl)c(C(F)(F)F)c3)cc2)ccn1` , state its recorded solubility (mole fraction). 0.00116

----------
# Protocol conditions: in isopropanol, 313.15 K
Measurement type: solubility (mole fraction)
# answer = number (no unit)

Given `CNC(=O)c1cc(Oc2ccc(NC(=O)Nc3ccc(Cl)c(C(F)(F)F)c3)cc2)ccn1` , state its recorded solubility (mole fraction). 0.00138

----------
# Protocol conditions: in cyclohexanone, 273.15 K
Measurement type: solubility (mole fraction)
# answer = number (no unit)

Given `CNC(=O)c1cc(Oc2ccc(NC(=O)Nc3ccc(Cl)c(C(F)(F)F)c3)cc2)ccn1` , state its recorded solubility (mole fraction). 0.0114

----------
# Protocol conditions: in isopropanol, 288.15 K
Measurement type: solubility (mole fraction)
# answer = number (no unit)

Given `CNC(=O)c1cc(Oc2ccc(NC(=O)Nc3ccc(Cl)c(C(F)(F)F)c3)cc2)ccn1` , state its recorded solubility (mole fraction). 0.000761

----------
# Protocol conditions: in acetonitrile, 298.15 K
Measurement type: solubility (mole fraction)
# answer = number (no unit)

Given `CNC(=O)c1cc(Oc2ccc(NC(=O)Nc3ccc(Cl)c(C(F)(F)F)c3)cc2)ccn1` , state its recorded solubility (mole fraction). 0.000396

----------
# Protocol conditions: in ethanol, 303.15 K
Measurement type: solubility (mole fraction)
# answer = number (no unit)

Given `CNC(=O)c1cc(Oc2ccc(NC(=O)Nc3ccc(Cl)c(C(F)(F)F)c3)cc2)ccn1` , state its recorded solubility (mole fraction). 0.00127

----------
# Protocol conditions: in n-propanol, 288.15 K
Measurement type: solubility (mole fraction)
# answer = number (no unit)

Given `CNC(=O)c1cc(Oc2ccc(NC(=O)Nc3ccc(Cl)c(C(F)(F)F)c3)cc2)ccn1` , state its recorded solubility (mole fraction). 0.00111

----------
# Protocol conditions: in methanol, 278.15 K
Measurement type: solubility (mole fraction)
# answer = number (no unit)

Given `CNC(=O)c1cc(Oc2ccc(NC(=O)Nc3ccc(Cl)c(C(F)(F)F)c3)cc2)ccn1` , state its recorded solubility (mole fraction). 0.000422

----------
# Protocol conditions: in n-butanol, 288.15 K
Measurement type: solubility (mole fraction)
# answer = number (no unit)

Given `CNC(=O)c1cc(Oc2ccc(NC(=O)Nc3ccc(Cl)c(C(F)(F)F)c3)cc2)ccn1` , state its recorded solubility (mole fraction). 0.00103

----------
# Protocol conditions: in isopropanol, 273.15 K
Measurement type: solubility (mole fraction)
# answer = number (no unit)

Given `CNC(=O)c1cc(Oc2ccc(NC(=O)Nc3ccc(Cl)c(C(F)(F)F)c3)cc2)ccn1` , state its recorded solubility (mole fraction). 0.000498

----------
# Protocol conditions: in methanol, 313.15 K
Measurement type: solubility (mole fraction)
# answer = number (no unit)

Given `CNC(=O)c1cc(Oc2ccc(NC(=O)Nc3ccc(Cl)c(C(F)(F)F)c3)cc2)ccn1` , state its recorded solubility (mole fraction). 0.000848

----------
# Protocol conditions: in methanol, 273.15 K
Measurement type: solubility (mole fraction)
# answer = number (no unit)

Given `CNC(=O)c1cc(Oc2ccc(NC(=O)Nc3ccc(Cl)c(C(F)(F)F)c3)cc2)ccn1` , state its recorded solubility (mole fraction). 0.000385

----------
# Protocol conditions: in ethanol, 288.15 K
Measurement type: solubility (mole fraction)
# answer = number (no unit)

Given `CNC(=O)c1cc(Oc2ccc(NC(=O)Nc3ccc(Cl)c(C(F)(F)F)c3)cc2)ccn1` , state its recorded solubility (mole fraction). 0.000922

----------
# Protocol conditions: in acetonitrile, 313.15 K
Measurement type: solubility (mole fraction)
# answer = number (no unit)

Given `CNC(=O)c1cc(Oc2ccc(NC(=O)Nc3ccc(Cl)c(C(F)(F)F)c3)cc2)ccn1` , state its recorded solubility (mole fraction). 0.000678

----------
# Protocol conditions: in acetonitrile, 303.15 K
Measurement type: solubility (mole fraction)
# answer = number (no unit)

Given `CNC(=O)c1cc(Oc2ccc(NC(=O)Nc3ccc(Cl)c(C(F)(F)F)c3)cc2)ccn1` , state its recorded solubility (mole fraction). 0.000476

----------
# Protocol conditions: in n-butanol, 273.15 K
Measurement type: solubility (mole fraction)
# answer = number (no unit)

Given `CNC(=O)c1cc(Oc2ccc(NC(=O)Nc3ccc(Cl)c(C(F)(F)F)c3)cc2)ccn1` , state its recorded solubility (mole fraction). 0.000726

----------
# Protocol conditions: in toluene, 308.15 K
Measurement type: solubility (mole fraction)
# answer = number (no unit)

Given `CNC(=O)c1cc(Oc2ccc(NC(=O)Nc3ccc(Cl)c(C(F)(F)F)c3)cc2)ccn1` , state its recorded solubility (mole fraction). 0.00382

----------
# Protocol conditions: in ethyl acetate, 313.15 K
Measurement type: solubility (mole fraction)
# answer = number (no unit)

Given `CNC(=O)c1cc(Oc2ccc(NC(=O)Nc3ccc(Cl)c(C(F)(F)F)c3)cc2)ccn1` , state its recorded solubility (mole fraction). 0.00293

----------
# Protocol conditions: in 2-butanone, 308.15 K
Measurement type: solubility (mole fraction)
# answer = number (no unit)

Given `CNC(=O)c1cc(Oc2ccc(NC(=O)Nc3ccc(Cl)c(C(F)(F)F)c3)cc2)ccn1` , state its recorded solubility (mole fraction). 0.0122

----------
# Protocol conditions: in cyclohexanone, 283.15 K
Measurement type: solubility (mole fraction)
# answer = number (no unit)

Given `CNC(=O)c1cc(Oc2ccc(NC(=O)Nc3ccc(Cl)c(C(F)(F)F)c3)cc2)ccn1` , state its recorded solubility (mole fraction). 0.0138

----------
# Protocol conditions: in acetonitrile, 273.15 K
Measurement type: solubility (mole fraction)
# answer = number (no unit)

Given `CNC(=O)c1cc(Oc2ccc(NC(=O)Nc3ccc(Cl)c(C(F)(F)F)c3)cc2)ccn1` , state its recorded solubility (mole fraction). 0.000162

----------
# Protocol conditions: in n-butanol, 298.15 K
Measurement type: solubility (mole fraction)
# answer = number (no unit)

Given `CNC(=O)c1cc(Oc2ccc(NC(=O)Nc3ccc(Cl)c(C(F)(F)F)c3)cc2)ccn1` , state its recorded solubility (mole fraction). 0.0013

----------
# Protocol conditions: in acetone, 303.15 K
Measurement type: solubility (mole fraction)
# answer = number (no unit)

Given `CNC(=O)c1cc(Oc2ccc(NC(=O)Nc3ccc(Cl)c(C(F)(F)F)c3)cc2)ccn1` , state its recorded solubility (mole fraction). 0.00448

----------
# Protocol conditions: in isobutanol, 273.15 K
Measurement type: solubility (mole fraction)
# answer = number (no unit)

Given `CNC(=O)c1cc(Oc2ccc(NC(=O)Nc3ccc(Cl)c(C(F)(F)F)c3)cc2)ccn1` , state its recorded solubility (mole fraction). 0.000433

----------
# Protocol conditions: in acetone, 298.15 K
Measurement type: solubility (mole fraction)
# answer = number (no unit)

Given `CNC(=O)c1cc(Oc2ccc(NC(=O)Nc3ccc(Cl)c(C(F)(F)F)c3)cc2)ccn1` , state its recorded solubility (mole fraction). 0.00405
